- STUDY_SYSTEM: F508del V470 CFTR (Homo sapiens, UniProt P13569, DEL508-508)
- Sequence (P13569 with tags, fused parts or gaps DEL508-508): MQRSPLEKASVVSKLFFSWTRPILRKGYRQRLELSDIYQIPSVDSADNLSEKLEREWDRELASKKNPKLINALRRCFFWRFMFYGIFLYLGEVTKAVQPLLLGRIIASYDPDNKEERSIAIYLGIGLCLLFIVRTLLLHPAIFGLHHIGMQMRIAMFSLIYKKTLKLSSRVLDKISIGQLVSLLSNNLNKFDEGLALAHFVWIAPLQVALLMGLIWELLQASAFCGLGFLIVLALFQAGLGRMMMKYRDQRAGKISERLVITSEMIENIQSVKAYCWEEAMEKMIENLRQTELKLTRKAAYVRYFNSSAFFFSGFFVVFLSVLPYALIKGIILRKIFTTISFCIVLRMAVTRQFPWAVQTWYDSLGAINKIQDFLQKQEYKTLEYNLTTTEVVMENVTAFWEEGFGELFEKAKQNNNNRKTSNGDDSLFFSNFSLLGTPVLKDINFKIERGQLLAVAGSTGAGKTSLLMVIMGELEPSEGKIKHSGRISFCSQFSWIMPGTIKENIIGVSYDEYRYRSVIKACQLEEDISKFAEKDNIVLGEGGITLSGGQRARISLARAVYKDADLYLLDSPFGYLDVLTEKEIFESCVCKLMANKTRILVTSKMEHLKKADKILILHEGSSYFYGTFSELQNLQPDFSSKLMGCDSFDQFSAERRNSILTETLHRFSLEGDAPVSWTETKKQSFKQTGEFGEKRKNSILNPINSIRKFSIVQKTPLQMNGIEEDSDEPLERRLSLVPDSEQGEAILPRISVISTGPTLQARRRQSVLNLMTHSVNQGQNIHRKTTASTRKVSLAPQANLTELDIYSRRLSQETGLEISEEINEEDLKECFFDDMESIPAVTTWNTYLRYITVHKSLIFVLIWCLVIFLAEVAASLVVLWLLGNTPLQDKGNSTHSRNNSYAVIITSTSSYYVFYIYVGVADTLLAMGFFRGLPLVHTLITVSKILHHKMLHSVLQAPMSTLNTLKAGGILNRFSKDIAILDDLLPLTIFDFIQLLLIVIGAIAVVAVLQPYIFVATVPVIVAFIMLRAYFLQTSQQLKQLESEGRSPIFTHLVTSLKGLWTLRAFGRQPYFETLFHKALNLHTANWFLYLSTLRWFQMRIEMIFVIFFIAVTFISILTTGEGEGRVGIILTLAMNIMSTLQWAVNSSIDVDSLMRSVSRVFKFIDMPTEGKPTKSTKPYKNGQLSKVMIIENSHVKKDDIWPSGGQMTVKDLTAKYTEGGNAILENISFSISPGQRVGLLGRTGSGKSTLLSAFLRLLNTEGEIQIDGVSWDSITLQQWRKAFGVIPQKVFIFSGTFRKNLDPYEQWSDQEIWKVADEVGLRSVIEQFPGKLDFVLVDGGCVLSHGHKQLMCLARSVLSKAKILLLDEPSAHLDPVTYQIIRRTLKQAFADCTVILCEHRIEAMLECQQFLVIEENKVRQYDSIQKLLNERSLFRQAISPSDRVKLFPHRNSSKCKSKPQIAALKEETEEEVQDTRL
- ASSAY_COMMENT: FRT Ion Flux Assay of F508del CFTR Potentiation
- CONDITION_LABEL: FRT cells expressing F508del V470 CFTR and halide-sensitive YFP, forskolin 20 uM, 30 min
Please respond with Satisfied when measured EC50 is strictly beneath 0.01 µM, and with Not satisfied in all other cases.

[
  {
    "COMPOUND": "CCC(c1cn(-c2ccccc2)nn1)n1nc(-c2cnc(C(F)(F)F)nc2)c2c(N)ncnc21 (single isomer, unassigned) [Example 95]",
    "ASSIGNED_CATEGORY": "Not satisfied"
  },
  {
    "COMPOUND": "CCC(c1cn(-c2ccccc2F)nn1)c1cc(-c2cncnc2OC)c2c(N)ncnn12 (single isomer, unassigned) [Example 65]",
    "ASSIGNED_CATEGORY": "Not satisfied"
  },
  {
    "COMPOUND": "CC(c1cnn(-c2ccccc2F)c1)c1c(C#N)c(-c2cnc(C(F)(F)F)nc2)c2c(N)ncnn12 (single isomer, unassigned) [Example 13]",
    "ASSIGNED_CATEGORY": "Satisfied"
  },
  {
    "COMPOUND": "CCC(c1cnn(C(C)C)c1)c1c(C#N)c(-c2cnc(C(F)(F)F)nc2)c2c(N)ncnn12 (single isomer, unassigned) [Example 11]",
    "ASSIGNED_CATEGORY": "Satisfied"
  }
]

Could you now consider this next compound?
Dear reviewer, please state whether CCC(c1cn(-c2ccc(F)cc2F)nn1)n1nc(-c2cnc(C(F)(F)F)nc2)c2c(N)ncnc21 (single isomer, unassigned) has EC50 strictly beneath 0.01 µM.
Not satisfied

====

- STUDY_SYSTEM: F508del V470 CFTR (Homo sapiens, UniProt P13569, DEL508-508)
- ASSAY_COMMENT: FRT Ion Flux Assay of F508del CFTR Potentiation
- CONDITION_LABEL: FRT cells expressing F508del V470 CFTR and halide-sensitive YFP, forskolin 20 uM, 30 min
EXPERIMENTAL_ENDPOINT: EC50 (nM)
Report the figure in nM without appending any unit label.

[
  {
    "COMPOUND": "CCC(c1cn(-c2ccccc2F)nn1)c1cc(-c2cncnc2OC)c2c(N)ncnn12 (single isomer, unassigned) [Example 66]",
    "UNIT_OF_MEASUREMENT": "nM",
    "EC50": 524
  },
  {
    "COMPOUND": "CCC(c1cn(-c2ccccc2F)nn1)c1cc(-c2cnc(C(F)(F)F)nc2)c2c(N)ncnn12 (single isomer, unassigned) [Example 57]",
    "UNIT_OF_MEASUREMENT": "nM",
    "EC50": 1.88
  },
  {
    "COMPOUND": "CC(O)(c1cn(-c2ccccc2F)nn1)c1cc(-c2cnc(C(F)(F)F)nc2)c2c(N)ncnn12 (single isomer, unassigned) [Example 68]",
    "UNIT_OF_MEASUREMENT": "nM",
    "EC50": 2310
  },
  {
    "COMPOUND": "CCC(c1cn(-c2ccc(F)cc2F)nn1)c1c(C#N)c(-c2cnc(C(F)(F)F)nc2)c2c(N)ncnn12 (single isomer, unassigned) [Example 6]",
    "UNIT_OF_MEASUREMENT": "nM",
    "EC50": 5.05
  }
]

Any idea what its EC50 is? The compound is CCC(c1cn(-c2ccc(F)cc2F)nn1)c1c(C#N)c(-c2cnc(C(F)(F)F)nc2)c2c(N)ncnn12 (single isomer, unassigned) [Example 7]
45.2

====

- STUDY_SYSTEM: CFTR (Homo sapiens)
- ASSAY_COMMENT: Ussing Chamber Electrophysiology Assay of CFTR Potentiation in CF Bronchial Epithelial Cells
- CONDITION_LABEL: primary CF hBE cells, short-circuit current, scaled to DMSO (0%) and positive control potentiator (100%)
EXPERIMENTAL_ENDPOINT: EC50 (nM)
Give the quantity in nM, number only.

A selection of reference data follows.
[
  {
    "COMPOUND": "CC(c1cnn(-c2ccccc2F)c1)c1c(C#N)c(-c2cnc(C(F)F)nc2)c2c(N)ncnn12 (single isomer, unassigned) [Example 97]",
    "EC50 [nM]": 3.87
  },
  {
    "COMPOUND": "N#Cc1c(-c2cnc(C(F)(F)F)nc2)c2c(N)ncnn2c1Cc1cn(-c2ccccc2F)nn1",
    "EC50 [nM]": 27.1
  },
  {
    "COMPOUND": "N#Cc1c(-c2cnc(C(F)F)nc2)c2c(N)ncnn2c1Cc1cnn(-c2ccccc2F)c1",
    "EC50 [nM]": 1.05
  }
]

I have this compound here, CC(O)(c1cn(-c2ccccc2F)nn1)c1cc(-c2cnc(C(F)(F)F)nc2)c2c(N)ncnn12 (single isomer, unassigned) , and I need its recorded EC50.
147

Can you look up the measured EC50 of `N#Cc1c(-c2cnc(C(F)(F)F)nc2)c2c(N)ncnn2c1Cc1cnn(-c2ccccc2F)c1` for me?
0.86

What value of EC50 has been reported for the following compound? CC(c1cnn(-c2ccc(F)cc2F)c1)c1c(C#N)c(-c2cnc(C(F)(F)F)nc2)c2c(N)ncnn12 (single isomer, unassigned) [Example 21]
0.66

Suppose we examine the compound CCC(c1cnn(-c2ccccc2F)c1)c1c(C#N)c(-c2cnc(C(F)(F)F)nc2)c2c(N)ncnn12 (single isomer, unassigned) [Example 15] ; what EC50 value has been reported?
0.2

I am curious: what EC50 value has been reported for CC(c1cn(-c2ccccc2F)nn1)c1cc(-c2cnc(C(F)(F)F)nc2)c2c(N)ncnn12 (single isomer, unassigned) [Example 53] ?
171

Data request, read-out EC50, for CCC(c1cnn(-c2ccc(F)cc2F)c1)c1c(C#N)c(-c2cnc(C(F)(F)F)nc2)c2c(N)ncnn12 (single isomer, unassigned) [Example 17]
3

Fill blank: measured EC50 of the compound CCC(c1cnn(-c2ccccc2F)c1)n1nc(-c2cnc(C(F)(F)F)nc2)c2c(N)ncnc21 (single isomer, unassigned) [Example 88] is ____.
31

EC50 for CCC(c1cnn(C(C)C)c1)c1c(C#N)c(-c2cnc(C(F)(F)F)nc2)c2c(N)ncnn12 (single isomer, unassigned) [Example 11] ?
6.96

I am curious: what EC50 value has been reported for CCC(c1cn(-c2ccccc2)nn1)n1nc(-c2cnc(C(F)(F)F)nc2)c2c(N)ncnc21 (single isomer, unassigned) [Example 94] ?
74.4

Using the record for CC(c1cc(-c2ccccc2F)no1)c1c(C#N)c(-c2cnc(C(F)(F)F)nc2)c2c(N)ncnn12 (single isomer, unassigned) [Example 18] , report its EC50.
1.67

Quick one: EC50 for CCC(c1cn(-c2ccccc2F)nn1)c1cc(-c2cnc(C(F)(F)F)nc2)c2c(N)ncnn12 (stereo not shown) [Example 82] ?
4.93

====

- STUDY_SYSTEM: F508del V470 CFTR (Homo sapiens, UniProt P13569, DEL508-508)
- ASSAY_COMMENT: FRT Ion Flux Assay of F508del CFTR Potentiation
- CONDITION_LABEL: FRT cells expressing F508del V470 CFTR and halide-sensitive YFP, forskolin 20 uM, 30 min
EXPERIMENTAL_ENDPOINT: pEC50
# pEC50 is unitless: minus log10 of the molar concentration; print number only

[
  {
    "COMPOUND": "N#Cc1c(-c2cnc(C(F)F)nc2)c2c(N)ncnn2c1Cc1cnn(-c2ccccc2F)c1",
    "pEC50": 9.39
  },
  {
    "COMPOUND": "CCC(c1cn(-c2ccc(F)cc2F)nn1)c1cc(-c2cnc(C(F)(F)F)nc2)c2c(N)ncnn12 (single isomer, unassigned) [Example 59]",
    "pEC50": 6.60
  },
  {
    "COMPOUND": "CCC(c1cn(-c2ccccc2F)nn1)c1cc(-c2cncnc2OC)c2c(N)ncnn12 (centres unmarked) [Example 83]",
    "pEC50": 7.74
  },
  {
    "COMPOUND": "CC(O)(c1cn(-c2ccccc2F)nn1)c1cc(-c2cnc(C(F)(F)F)nc2)c2c(N)ncnn12 (single isomer, unassigned) [Example 67]",
    "pEC50": 7.30
  },
  {
    "COMPOUND": "CCC(c1cn(-c2ccccc2F)nn1)c1c(C#N)c(-c2cnc(C(F)(F)F)nc2)c2c(N)ncnn12 (single isomer, unassigned) [Example 4]",
    "pEC50": 7.45
  },
  {
    "COMPOUND": "CC(c1cnn(-c2ccc(F)cc2F)c1)c1c(C#N)c(-c2cnc(C(F)(F)F)nc2)c2c(N)ncnn12 (single isomer, unassigned) [Example 21]",
    "pEC50": 8.50
  },
  {
    "COMPOUND": "CC(c1cn(-c2ccc(F)cc2F)nn1)c1c(C#N)c(-c2cnc(C(F)(F)F)nc2)c2c(N)ncnn12 (centres unmarked) [Example 24]",
    "pEC50": 7.54
  }
]

Please look up its pEC50: CCC(c1cn(-c2ccccc2F)nn1)c1cc(-c2cnc(C(F)(F)F)nc2)c2c(N)ncnn12 (single isomer, unassigned) [Example 58]
7.04
